Below, each of the compounds is paired with its reported mass density value.
run_parameters: 333.15 K; 101.33 kPa; Liquid; Vibrating tube method
measured_metric: mass density (kg/m3)

[
  {
    "compound": "CCCC[P+](C)(CCCC)CCCC.[Cl-] [methyltributylphosphonium chloride]",
    "result_units": "kg/m3",
    "reported": 937.42
  },
  {
    "compound": "CCCC[P+](C)(CCCC)CCCC.O=S(=O)([N-]S(=O)(=O)C(F)(F)F)C(F)(F)F",
    "result_units": "kg/m3",
    "reported": 1225.64
  },
  {
    "compound": "COS(=O)(=O)[O-].C[n+]1ccccc1 [1-methylpyridinium methylsulfate]",
    "result_units": "kg/m3",
    "reported": 1321.1
  },
  {
    "compound": "CCCCn1cc[n+](C)c1.COS(=O)(=O)[O-] [1-butyl-3-methylimidazolium methyl sulfate]",
    "result_units": "kg/m3",
    "reported": 1185.76
  },
  {
    "compound": "CCCC[P+](C)(CCCC)CCCC.COS(=O)(=O)[O-] [tributylmethylphosphonium methyl sulfate]",
    "result_units": "kg/m3",
    "reported": 1036.12
  }
]
